system tested: T1, recombinant human Tie2 extracellular domain (human, UniProt Q02763 23-748)
T1 construct: whole entry named; also called Recombinant human Tie2 ECD; hu Tie2
T1 sequence (Q02763 23-748 limits assumed): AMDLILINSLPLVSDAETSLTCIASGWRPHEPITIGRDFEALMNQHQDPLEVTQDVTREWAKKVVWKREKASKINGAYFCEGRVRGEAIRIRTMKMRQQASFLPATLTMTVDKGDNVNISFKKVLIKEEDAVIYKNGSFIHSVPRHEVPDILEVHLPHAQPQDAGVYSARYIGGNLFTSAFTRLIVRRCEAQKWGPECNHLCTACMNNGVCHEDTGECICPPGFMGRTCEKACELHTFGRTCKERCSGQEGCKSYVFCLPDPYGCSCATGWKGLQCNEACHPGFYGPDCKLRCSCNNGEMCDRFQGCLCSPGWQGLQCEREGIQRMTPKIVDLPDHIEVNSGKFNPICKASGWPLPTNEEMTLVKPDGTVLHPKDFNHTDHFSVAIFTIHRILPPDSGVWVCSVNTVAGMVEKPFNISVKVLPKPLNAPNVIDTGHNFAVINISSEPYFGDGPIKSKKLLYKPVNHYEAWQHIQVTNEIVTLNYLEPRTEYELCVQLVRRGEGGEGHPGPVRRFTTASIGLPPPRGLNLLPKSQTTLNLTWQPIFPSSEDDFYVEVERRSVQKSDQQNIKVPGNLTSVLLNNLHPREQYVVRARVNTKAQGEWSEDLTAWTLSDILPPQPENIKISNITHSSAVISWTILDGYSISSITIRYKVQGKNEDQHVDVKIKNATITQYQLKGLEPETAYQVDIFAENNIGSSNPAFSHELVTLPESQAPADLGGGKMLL
experimental details: SPR, IgG captured, 37C
measure name: Normalized Binding Signal, 300 nM

Below are worked cases with known answers.
binder="Tie2.1.M100cI (antibody, IgG1, name in Kabat numbering, V domains shown, hIgG1) VH: EVQLVESGGGLVQPGGSLRLSCAASGFTFSNTDISWVRQAPGKGLEWVGRISPSDGNTYYADSVKGRFTISADTSKNTAYLQMNSLRAEDTAVYYCARRTRWASWAIDYWGQGTLVTVSS VL: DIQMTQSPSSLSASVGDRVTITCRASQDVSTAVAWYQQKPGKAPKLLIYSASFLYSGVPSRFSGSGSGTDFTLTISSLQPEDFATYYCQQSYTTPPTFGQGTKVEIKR" measured_result=0.04
binder="Tie2.1.M100cY (antibody, IgG1, name in Kabat numbering, V domains shown, hIgG1) VH: EVQLVESGGGLVQPGGSLRLSCAASGFTFSNTDISWVRQAPGKGLEWVGRISPSDGNTYYADSVKGRFTISADTSKNTAYLQMNSLRAEDTAVYYCARRTRWASWAYDYWGQGTLVTVSS VL: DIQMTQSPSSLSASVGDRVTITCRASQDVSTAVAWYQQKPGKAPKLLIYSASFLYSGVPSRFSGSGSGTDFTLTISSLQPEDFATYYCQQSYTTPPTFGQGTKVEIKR" measured_result=0.15
binder="Tie2.1.M100cL (antibody, IgG1, name in Kabat numbering, V domains shown, hIgG1) VH: EVQLVESGGGLVQPGGSLRLSCAASGFTFSNTDISWVRQAPGKGLEWVGRISPSDGNTYYADSVKGRFTISADTSKNTAYLQMNSLRAEDTAVYYCARRTRWASWALDYWGQGTLVTVSS VL: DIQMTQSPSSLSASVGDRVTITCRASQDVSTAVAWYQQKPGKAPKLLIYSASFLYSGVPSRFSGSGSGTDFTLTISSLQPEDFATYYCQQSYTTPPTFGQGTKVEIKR" measured_result=0.13

Turning to the following binder.
I'd like to know its Normalized Binding Signal, 300 nM. The binder in question is Tie2.1.M100cF (antibody, IgG1, V domains shown, hIgG1 in the SPR and binning assays) VH: EVQLVESGGGLVQPGGSLRLSCAASGFTFSNTDISWVRQAPGKGLEWVGRISPSDGNTYYADSVKGRFTISADTSKNTAYLQMNSLRAEDTAVYYCARRTRWASWAFDYWGQGTLVTVSS VL: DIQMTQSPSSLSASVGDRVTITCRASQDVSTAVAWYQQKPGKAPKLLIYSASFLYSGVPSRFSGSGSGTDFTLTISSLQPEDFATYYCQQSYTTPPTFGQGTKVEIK
0.14
